test description: protein stability index of a GFP-peptide fusion (yeast GPS) (PSI 1-4); higher = more stable; sorted into four equal gates, so the index is relative within each strain
conditions: ubr1∆
protein stability index below 2 gives -1; protein stability index at or above it gives 1.

> print(dat)
              sequence.string  label.class
1  CSNESFASIPVSNSISR [SNU114]            1
2    KRINKFLDSVHKQGSSY [POP7]            1
3    RQLTSMEFSNLYKEFFN [NUT1]            1

In: Decide: protein stability index of QTARKSTGGKAPRKQLA [HHT1] >= 2?
Out: 1

In: Decide: protein stability index of GAKFENIVHNFKERQMM [AAR2] >= 2?
Out: 1

In: Decide: protein stability index of KDLKDDSIYTKPVKVAL [YJL039C/NUP192] >= 2?
Out: 1

In: Decide: protein stability index of GLTTVWLLSALGNSIVK [REC8] >= 2?
Out: -1

In: Decide: protein stability index of ITRLCQTLGLESFTEEL [MED1] >= 2?
Out: 1

In: Decide: protein stability index of QGVYGAVYETLISRMIF [BRR2] >= 2?
Out: -1

In: Decide: protein stability index of YPLLIRMSYGSHDKKTK [SRP14] >= 2?
Out: 1

The reported numbers originate from the supplement of paper PMC9732359.
